assay: Clearance in SJL mouse at 10 mg/kg, po and 5 mg/kg, iv; format: ADME, organism-based; details: in vivo
assay readout: clearance (mL/min/kg)
Hi! Could you send only the number? It should be in mL/min/kg, unit omitted.

Form field clearance, entry "Cc1cccc2c1n(C)c(=N)n2CC(=O)c1ccc(Cl)cc1" : 95

* * *

molecular target: C-X-C chemokine receptor type 3 (Homo sapiens, UniProt P49682); assay: Displacement of [125]CXCL10 from human CXCR3 expressed in CHO cells; assay type: cell-based
Sequence (P49682 whole entry): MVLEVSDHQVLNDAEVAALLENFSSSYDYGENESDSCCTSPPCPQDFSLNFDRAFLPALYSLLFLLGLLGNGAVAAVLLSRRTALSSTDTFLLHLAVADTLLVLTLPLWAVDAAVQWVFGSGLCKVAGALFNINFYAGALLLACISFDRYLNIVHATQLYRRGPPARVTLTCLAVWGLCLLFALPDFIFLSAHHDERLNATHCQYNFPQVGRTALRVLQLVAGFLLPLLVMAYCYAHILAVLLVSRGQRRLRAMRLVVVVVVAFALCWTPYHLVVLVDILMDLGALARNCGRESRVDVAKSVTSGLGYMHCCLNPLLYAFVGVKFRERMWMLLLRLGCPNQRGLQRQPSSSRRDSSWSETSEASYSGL
assay readout: pIC50
Entry type: numeric. Quantity: pIC50, the -log10 of concentration in molar units.

Form field pIC50, entry "COCC/N=c1/n(C)c2ccccc2n1CC(=O)c1ccc(Br)cc1" : 6.00

Form field pIC50, entry "Cc1ccc2c(c1)n(C)c(=N)n2CC(=O)c1ccc(Cl)cc1" : 6.00

Form field pIC50, entry "COc1cccc2c1n(C)c(=N)n2CC(=O)c1ccc(Br)cc1" : 6.10

Form field pIC50, entry "Cn1c(=N)n(CC(=O)c2ccc(Cl)cc2)c2ccccc21" : 6.10

Form field pIC50, entry "Cn1c(=N)n(CC(=O)c2ccc(Br)cc2)c2ccccc21" : 6.10

Form field pIC50, entry "Cn1c(=N)n(CCc2ccc(Br)cc2)c2ccccc21" : 4.96

Form field pIC50, entry "Cc1ccc2c(c1)n(CC(=O)c1ccc(Cl)cc1)c(=N)n2C" : 5.10

Form field pIC50, entry "Cn1c(=N)n(CC(=O)c2ccc(Cl)cc2)c2cccc(C(F)(F)F)c21" : 6.15

Form field pIC50, entry "C/N=c1/n(C)c2ccccc2n1CC(=O)c1ccc(Cl)cc1" : 6.10

Form field pIC50, entry "CC(=O)c1nc2ccccc2n1CC(=O)c1ccc(Cl)cc1" : 5.10

Form field pIC50, entry C[S+]([O-])c1nc2ccccc2n1CC(=O)c1ccc([N+](=O)[O-])cc1 (stereo unspecified) : 4.96
